src = patent US8940724B2

target: PI3Kδ (Homo sapiens); construct: Full length p110 subunits of PI3k α, β and δ, N-terminally labeled with polyHis tag; polyHis (N); experiment: PI3Kδ Alphascreen assay
Sequence (O00329 whole entry): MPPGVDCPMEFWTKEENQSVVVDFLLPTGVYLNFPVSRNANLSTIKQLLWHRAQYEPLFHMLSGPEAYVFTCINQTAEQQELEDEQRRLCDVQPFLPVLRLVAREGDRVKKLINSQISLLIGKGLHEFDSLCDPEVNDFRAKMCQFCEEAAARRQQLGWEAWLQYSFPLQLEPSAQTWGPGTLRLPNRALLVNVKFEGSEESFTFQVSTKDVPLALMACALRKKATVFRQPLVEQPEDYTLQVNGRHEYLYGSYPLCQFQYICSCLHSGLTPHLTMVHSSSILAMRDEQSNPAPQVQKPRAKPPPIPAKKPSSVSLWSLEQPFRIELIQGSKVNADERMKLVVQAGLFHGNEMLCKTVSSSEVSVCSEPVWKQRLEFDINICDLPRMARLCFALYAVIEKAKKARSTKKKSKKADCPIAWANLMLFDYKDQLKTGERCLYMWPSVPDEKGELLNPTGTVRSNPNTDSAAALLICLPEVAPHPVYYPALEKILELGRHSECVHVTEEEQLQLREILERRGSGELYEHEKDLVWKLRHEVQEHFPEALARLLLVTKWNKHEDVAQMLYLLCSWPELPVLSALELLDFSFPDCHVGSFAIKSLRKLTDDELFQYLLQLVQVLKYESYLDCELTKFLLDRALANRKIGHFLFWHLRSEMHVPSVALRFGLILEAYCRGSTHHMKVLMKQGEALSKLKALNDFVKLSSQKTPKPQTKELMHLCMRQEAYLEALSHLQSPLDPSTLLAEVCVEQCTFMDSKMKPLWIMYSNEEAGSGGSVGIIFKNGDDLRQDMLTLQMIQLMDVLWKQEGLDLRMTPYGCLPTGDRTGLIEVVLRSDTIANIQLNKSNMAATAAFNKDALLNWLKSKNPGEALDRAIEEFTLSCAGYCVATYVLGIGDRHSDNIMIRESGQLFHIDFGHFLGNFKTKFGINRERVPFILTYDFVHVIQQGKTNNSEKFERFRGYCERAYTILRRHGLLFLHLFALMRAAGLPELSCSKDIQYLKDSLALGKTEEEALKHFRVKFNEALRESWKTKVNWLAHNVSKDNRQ
Sequence (P27986 whole entry partner): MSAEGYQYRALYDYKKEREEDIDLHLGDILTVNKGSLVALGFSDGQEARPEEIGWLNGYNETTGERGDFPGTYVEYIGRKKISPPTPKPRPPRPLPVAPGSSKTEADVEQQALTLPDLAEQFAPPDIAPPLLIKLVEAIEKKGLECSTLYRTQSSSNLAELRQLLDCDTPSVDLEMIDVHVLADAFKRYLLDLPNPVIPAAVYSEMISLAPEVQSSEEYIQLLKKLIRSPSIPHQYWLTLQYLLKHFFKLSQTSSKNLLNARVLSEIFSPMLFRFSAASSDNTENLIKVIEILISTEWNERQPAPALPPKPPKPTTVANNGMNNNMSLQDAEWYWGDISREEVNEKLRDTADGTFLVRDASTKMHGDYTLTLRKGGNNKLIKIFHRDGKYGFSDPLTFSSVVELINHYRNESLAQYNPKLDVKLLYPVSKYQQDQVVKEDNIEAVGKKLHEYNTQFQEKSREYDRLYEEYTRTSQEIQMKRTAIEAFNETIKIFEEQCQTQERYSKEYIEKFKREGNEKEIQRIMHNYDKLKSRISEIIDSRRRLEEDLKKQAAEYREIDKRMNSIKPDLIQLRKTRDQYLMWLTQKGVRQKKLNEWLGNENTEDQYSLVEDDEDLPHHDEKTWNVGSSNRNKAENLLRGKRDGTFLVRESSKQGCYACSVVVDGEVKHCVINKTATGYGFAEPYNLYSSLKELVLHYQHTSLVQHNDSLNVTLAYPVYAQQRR
MEASURED_ATTRIBUTE: Ki (nM)

Known Ki results, listed for orientation:
Query: Look at this compound and give its reported Ki. Cc1c(-c2ccccn2)nc2c(Cl)cccc2c1Nc1cncc(N2CCOCC2)c1
Result: 7.45

Query: Data request, read-out Ki, for Cc1ccc(-c2nc3cc(F)cc(F)c3c(Nc3cc(N4CCOCC4)cnc3N3CCOCC3)c2C)cn1
Result: 18

Query: Sample Cc1c(-c2ccc(N(C)C)nc2)nc2cc(F)cc(F)c2c1Nc1cncc(N2CCOCC2)c1 — what was its Ki?
Result: 180

Query: Look up Ki for this compound: Cc1c(-c2ccccn2)nc2cc(F)cc(F)c2c1Nc1ccc(C#N)c(N2CCOCC2)c1
Result: 484

Query: Fill in: Ki of Cc1c(-c2ccccn2)nc2ncccc2c1Nc1cc(N2CCOCC2)ccc1N1CCOCC1 is ___
Result: 582

(P) Cc1c(N2CCN(C(=O)c3cnco3)CC2)nc2cc(F)cc(F)c2c1Nc1cncc(N2CCOCC2)c1
(Q) Cc1c(-c2cccc3c2cnn3C)nc2cc(F)cc(F)c2c1Nc1cc(N2CCOCC2)cnc1N1CCOCC1
Query: For the pair P and Q , which entry has the numerically smaller recorded Ki? Label of pick, please.
Result: Q

(A) Cc1c(N2CCC[C@@H]2C(=O)O)nc2cc(F)cc(F)c2c1Nc1cncc(N2CCOCC2)c1
(B) Cc1c(-c2ccccn2)nc2cc(F)cc(F)c2c1Nc1cc(C#N)cc(N2CCOCC2)c1
Query: Which value of Ki is numerically greater: that of A or that of B ? Mark your answer with the label of the selected entry.
Result: A
(A: 59.9 nM, B: 7.97 nM)

----------
biological target: PI3Kδ (Homo sapiens); construct: Full length p110 subunits of PI3k α, β and δ, N-terminally labeled with polyHis tag; polyHis (N); test: PI3Kδ Alphascreen assay
MEASURED_ATTRIBUTE: Ki (nM)

Example entries and their recorded answers appear below.
Query: Enter reported Ki observed with PI3Kδ (Homo sapiens) for Cc1c(-c2ccnc(N3CCCC3)c2)nc2cc(F)cc(F)c2c1Nc1cc(N2CCOCC2)cnc1N1CCOCC1
Result: 40.7

Query: Given the entry Cc1c(N2CCN(C3CCCCC3)CC2)nc2cc(F)cc(F)c2c1Nc1cncc(N2CCOCC2)c1 , what Ki was observed with PI3Kδ (Homo sapiens)?
Result: 28.4

(A) COc1cc(-c2nc3cc(F)cc(F)c3c(Nc3cc(N4CCOCC4)cnc3N3CCOCC3)c2C)ccn1
(B) Cc1c(-c2ccc(N3CCC(C)CC3)nc2)nc2cc(F)cc(F)c2c1Nc1cc(N2CCOCC2)cnc1N1CCOCC1
Query: When A and B are compared, which has the higher number for Ki? Refer to your chosen entry by its label in the reply.
Result: B

----------
target: PI3Kδ (Homo sapiens); construct: Full length p110 subunits of PI3k α, β and δ, N-terminally labeled with polyHis tag; polyHis (N); experiment: PI3Kδ Alphascreen assay
pKi: −log10 of the molar value.
MEASURED_ATTRIBUTE: pKi

Query: Which value of pKi has been reported for CC(=O)c1ccc(S(C)(=O)=O)c(-c2nc3cc(F)cc(F)c3c(Nc3cncc(N4CCOCC4)c3)c2C)c1 in the records?
Result: 8.66

Query: Endpoint output: pKi of COc1cnccc1-c1ncc(N2CCOCC2)cc1Nc1c(C)c(-c2ccccn2)nc2cc(F)cc(F)c12 . Value?
Result: 8.11

Query: Which pKi value belongs to Cc1c(N2CCN(c3ccccc3)CC2)nc2cc(F)cc(F)c2c1Nc1cncc(N2CCOCC2)c1 ?
Result: 7.11

Query: Data request, read-out pKi, for Cc1c(N2CCN[C@H](C)C2)nc2cc(F)cc(F)c2c1Nc1cncc(N2CCOCC2)c1
Result: 7.35

Query: Form field: reported pKi of Cc1c(-c2ccc(N3CCCCC3)nc2)nc2cc(F)cc(F)c2c1Nc1cc(N2CCOCC2)cnc1N1CCOCC1
Result: 7.36

(I) Cc1ccnc(-c2nc3c(Cl)cccc3c(Nc3cc(N4CCOCC4)cnc3N3CCOCC3)c2C)c1
(II) Cc1c(N2CCN(CC(F)(F)F)CC2)nc2cc(F)cc(F)c2c1Nc1cncc(N2CCOCC2)c1
Query: # compare pKi for I vs II ; return the one with the smaller value Label of pick, please.
Result: II

(P) Cc1c(N2CCN(C)CC2)nc2cc(F)cc(F)c2c1Nc1cc(N2CCOCC2)cnc1N1CCOCC1
(Q) Cc1ccnc(-c2nc3cc(F)cc(F)c3c(Nc3cncc(-c4ccnc(N)n4)c3)c2C)c1
Query: // pick min by pKi: P , Q To answer, give the label that identifies your chosen option.
Result: P
(P: 7.92, Q: 8.27)

----------
target: PI3Kδ (Homo sapiens); construct: Full length p110 subunits of PI3k α, β and δ, N-terminally labeled with polyHis tag; polyHis (N); made in house; host or cells: Sf9 insect cells (baculovirus); experiment: PI3Kδ Alphascreen assay; assay type: biochemical
MEASURED_ATTRIBUTE: Ki (nM)

Observe how each entry below is paired with its result.
Query: Using the record for Cc1c(N2CCN(C(C)C)C(=O)C2)nc2cc(F)cc(F)c2c1Nc1cc(N2CCOCC2)cnc1N1CCOCC1 , report its Ki.
Result: 2.38

Query: Which Ki value belongs to Cc1c(N2CCN(C(=O)N(C)C)CC2)nc2cc(F)cc(F)c2c1N(C(=O)N(C)C)c1cncc(N2CCOCC2)c1 ?
Result: 81.6

Query: Sample CCNC(=O)N1CCN(c2nc3cc(F)cc(F)c3c(Nc3cncc(N4CCOCC4)c3)c2C)CC1 — what was its Ki?
Result: 24.8

Query: What value of Ki has been reported for the following molecule? Cc1c(-c2ccc(N3CCNCC3)nc2)nc2cc(F)cc(F)c2c1Nc1cc(N2CCOCC2)cnc1N1CCOCC1
Result: 56.3

Query: For the molecule Cc1cc(C(F)(F)F)ccc1-c1nc2cc(F)cc(F)c2c(Nc2cc(N3CCOCC3)cnc2N2CCOCC2)c1C , what Ki is on record?
Result: 248

Query: So what does the record say about Ki for Cc1c(-c2ccnc(N3CCCC3)c2)nc2cc(F)cc(F)c2c1Nc1cncc(N2CCOCC2)c1 ?
Result: 315

(a) Cc1c(-c2cccnc2)nc2cc(F)cc(F)c2c1Nc1cc(N2CCOC[C@H]2C)cnc1N1CCOCC1
(b) Cc1c(-c2ccccn2)nc2cc(F)cc(F)c2c1Nc1cncc(C2CCOCC2)c1
Query: Between a and b , which one shows the larger Ki value? Please indicate the selected item by its label.
Result: b

(P) Cc1c(N2CCN(C(=O)C3CCOCC3)CC2)nc2cc(F)cc(F)c2c1Nc1cncc(N2CCOCC2)c1
(Q) CCS(=O)(=O)N1CCN(c2nc3cc(F)cc(F)c3c(Nc3cncc(N4CCOCC4)c3)c2C)CC1
Query: Could you tell me which of these two has the smaller Ki figure? First: P Second: Q I would appreciate it if you answered with the label of your choice.
Result: P
(P: 55.7 nM, Q: 88.4 nM)

(I) COc1cc(-c2ncc(N3CCOCC3)cc2Nc2c(C)c(-c3ccccn3)nc3cc(F)cc(F)c23)ccn1
(II) Cc1c(-c2ccc(N3CCC(O)C3)nc2)nc2cc(F)cc(F)c2c1Nc1cc(N2CCOCC2)cnc1N1CCOCC1 (centres unmarked)
Query: Which entry shows the lesser value of Ki here, I or II ? Indicate which entry you chose by stating its label.
Result: I

(1) COc1cncc(-c2ccc(N3CCOCC3)cc2Nc2c(C)c(-c3ccccn3)nc3cc(F)cc(F)c23)c1
(2) Cc1c(N2CCN(C(=O)OC(C)(C)C)CC2)nc2cc(F)cc(F)c2c1Nc1cc(N2CCOCC2)cnc1N1CCOCC1
(3) Cc1c(N2CCN(S(C)(=O)=O)[C@H](C)C2)nc2cc(F)cc(F)c2c1Nc1cncc(N2CCOCC2)c1
(4) Cc1c(N2CCOCC2)nc2cc(F)cc(F)c2c1Nc1cncc(N2CCOCC2)c1
Query: Task field, ranking: reported Ki, descending order. Please reply with the labels ordered as requested. Many thanks.
Result: 3, 4, 2, 1

----------
molecular target: PI3Kδ (Homo sapiens); construct: Full length p110 subunits of PI3k α, β and δ, N-terminally labeled with polyHis tag; polyHis (N); test: PI3Kδ Alphascreen assay
MEASURED_ATTRIBUTE: Ki (nM)

The following compounds have reported results that may help.
Query: Value lookup for Ki; key = Cc1c(N2CCNC[C@@H]2C)nc2cc(F)cc(F)c2c1Nc1cncc(N2CCOCC2)c1
Result: 78.1

Query: I'd like to know its Ki. The compound in question is Cc1ccc(-c2nc3cc(F)cc(F)c3c(Nc3cncc(N4CCOCC4)c3)c2C)nc1
Result: 19.1

Query: Bench note: what Ki did Cc1c(N2CCN(C(=O)OCC(C)(C)C)CC2)nc2cc(F)cc(F)c2c1Nc1cncc(N2CCOCC2)c1 show?
Result: 99

(P) Cc1c(N2CCN(C(=O)c3ccccc3)CC2)nc2cc(F)cc(F)c2c1Nc1cncc(N2CCOCC2)c1
(Q) Cc1c(N2CCN(C)CC2)nc2cc(F)cc(F)c2c1Nc1cncc(N2CCOCC2)c1
Query: // select label with min value of measured Ki from [ P , Q ] Your answer should be the label attached to the chosen record.
Result: Q
(Q: 35.2 nM, P: 87.9 nM)
